Test system: test plant species
Test name: Post-emergent herbicidal activity test (greenhouse, foliar spray, visual growth reduction)
Assay type: in vivo
Test parameters: post-emergence, 336 h, redroot pigweed (Amaranthus retroflexus), 14 Days After Application, 140 g ai/ha, read-out: Visual Growth Reduction (%) AMARE
Property label: pest or weed control at 140 g/ha

* CCOc1cc(C(F)(F)F)ccc1-c1nc(C(=O)OC)c(Cl)cc1F [F311] | 0 to 29%
* COC(=O)c1nc(-c2ccc(C(F)F)cc2)c(F)cc1Cl [F209] | 45 to 59%
* COC(=O)c1nc(-c2ccc3c(c2OC)OC(F)(F)O3)c(F)cc1Cl [F235] | 95 to 100%
* COC(=O)c1nc(-c2ccc(Cl)c(C(F)F)c2F)ccc1Cl [F273] | 0 to 29%
* COC(=O)c1nc(-c2ccc(C(F)(F)F)c(C)c2)c(F)cc1Cl [F309] | 45 to 59%
* COC(=O)c1nc(-c2cc(F)c(C(F)(F)F)cc2OC)c(F)cc1Cl [F359] | 95 to 100%
* COC(=O)c1nc(-c2cc(Cl)c(C(F)(F)F)cc2C)c(F)cc1Cl [F370] | 85 to 94%
* C#Cc1cc(-c2nc(C(=O)OC)c(Cl)cc2F)c(Cl)cc1C(F)(F)F [F251] | 85 to 94%
* COc1nc(C(F)(F)F)ccc1-c1nc(C(=O)O)c(Cl)cc1F [F347] | 95 to 100%
* COC(=O)c1nc(-c2ccc(C(F)(F)F)c(F)c2)ccc1Cl [F306] | 30 to 44%

* * *

Tested on: test plant species
Test name: Post-emergent herbicidal activity test (greenhouse, foliar spray, visual growth reduction)
Assay type: in vivo
Test parameters: post-emergence, 336 h, AVEFA: wild oat (Avena fatua), 140 g ai/ha, 14 days after application, read-out: Visual Growth Reduction (%) 14 Days After Application, AVEFA
Let's look at some compounds and their measured pest or weed control at 140 g/ha.
Property label: pest or weed control at 140 g/ha

- COC(=O)c1nc(-c2c(Cl)cc(C(F)(F)F)cc2SC)ccc1Cl: 0 to 29%
- O=C(O)c1nc(-c2ccc(C(F)(F)F)cc2)c(Cl)cc1Cl: 0 to 29%
- O=C(O)c1nc(-c2ccc(C(F)(F)F)cc2Cl)ccc1Cl: 60 to 74%
- O=C(O)c1nc(-c2ccnc(Cl)c2Cl)ccc1Cl: 0 to 29%
- COC(=O)c1nc(-c2ccc(C(F)(F)F)cc2Cl)ccc1C: 75 to 84%
- O=C(OCc1ccccc1)c1nc(-c2ccc(C(F)(F)F)cc2Cl)ccc1Cl: 45 to 59%
- COC(=O)c1nc(-c2ccc(OC(C)(C)C)cc2Cl)ccc1Cl: 0 to 29%
- COC(=O)c1nc(-c2ccc(C(F)(F)F)cc2Cl)cc(C)c1Cl: 0 to 29%
- COC(=O)c1nc(-c2ccc(OC(F)(F)F)cc2)c(F)cc1Cl: 0 to 29%
- COC(=O)c1nc(-c2ccc(OC(F)(F)F)cc2Cl)ccc1Cl: 45 to 59%
- COC(=O)c1nc(-c2ccc3occc3c2)c(F)cc1Cl: 0 to 29%
- CO/N=C/c1c(C(F)(F)F)ccc(-c2ccc(Cl)c(C(=O)OC)n2)c1Cl: 0 to 29%
- COCC(F)(F)c1ccc(-c2ccc(Cl)c(C(=O)O)n2)c(Cl)c1: 0 to 29%
- COC(=O)c1nc(-c2ccc(C(F)(F)F)nc2Cl)ccc1Cl: 0 to 29%
- O=C(O)c1nc(-c2ncc(Cl)cc2Cl)ccc1Cl: 30 to 44%
- COCC(F)(F)c1ccc(-c2ccc(Cl)c(C(=O)OC)n2)c(Cl)c1: 0 to 29%
- O=C(OCc1cccc(C(F)(F)F)c1)c1nc(-c2ccc(C(F)(F)F)cc2Cl)ccc1Cl: 60 to 74%
- COC(=O)c1nc(-c2ccc(C)cc2Cl)ccc1Cl: 0 to 29%
- COC(=O)c1nc(-c2cc3c(cc2Cl)OCO3)c(F)cc1Cl: 0 to 29%
- O=C(O)c1nc(-c2ncc(Cl)c(C(F)F)c2Cl)ccc1Cl: 30 to 44%
